Please respond with reported protein stability index for every item in the list.
B1: ZNF511 (parent)
chain: FDALDDYEHHYHTLHGNVCSFCKR

- Variants of: B1
- assay.procedure: protein stability index of a GFP-peptide fusion (GPS, HEK-293T) (PSI 1-6); higher = more stable;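 note: lentivirally expressed fusions sorted by FACS into six bins by GFP to DsRed ratio, PSI derived from sequencing read proportions per bin multiplied by bin number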
- experimental.setup: c terminus: a fixed tail appended
Answers are plain numbers.

// input: 4 variants below; output: protein stability index for each
1. D2T
2. D6M
3. R24C
4. D5Q

3.18
3.03
3.58
3.86
